System: SUP-T1 (T-Lymphoblastic Leukemia)
Test: combination Emax (second highest fraction inhibited in the dose matrix, 72 h); higher = more inhibition; extreme values may be limits of the assay
Would you please tag the item T when its combination Emax is 0.5 or above, and F when it is below?

[
  {
    "compound": "C[C@@H](c1ccc2nccn2c1)n1nnc2ncc(-c3cnn(C)c3)nc21 [Savolitinib] + CC1(C)CCC(CN2CCN(c3ccc(C(=O)NS(=O)(=O)c4ccc(NCC5CCOCC5)c([N+](=O)[O-])c4)c(Oc4cnc5[nH]ccc5c4)c3)CC2)=C(c2ccc(Cl)cc2)C1 [Venetoclax] (first compound max 1 µM, 7x7, partner max 1 µM)",
    "class label": "F"
  },
  {
    "compound": "Cc1c2c(nn1C)CSCc1cc(n(C)n1)CSc1cc(c3ccccc3c1)OCCCc1c(C(=O)O)n(C)c3c-2c(Cl)ccc13 [AZD5991] + Cn1cnc2c(F)c(Nc3ccc(Br)cc3Cl)c(C(=O)NOCCO)cc21 [Selumetinib] (first compound max 1 µM, 7x7, partner max 3 µM)",
    "class label": "F"
  },
  {
    "compound": "CCN(CCO)CCCOc1ccc2c(Nc3cc(CC(=O)Nc4cccc(F)c4)[nH]n3)ncnc2c1 [AZD2811] + C[C@@H]1COCCN1C2=NC(=NC(=C2)C3(CC3)[S@](=N)(=O)C)C4=C5C=CNC5=NC=C4 [AZD6738] (first compound max 1 µM, 7x7, partner max 10 µM)",
    "class label": "T"
  },
  {
    "compound": "Cc1cc2ncnn2cc1Nc1ncc2c(n1)n(C1CCOCC1)c(=O)n2C [AZD7648] + O=C(c1cc(Cc2n[nH]c(=O)c3ccccc23)ccc1F)N1CCN(C(=O)C2CC2)CC1 [Olaparib] (first compound max 10 µM, 7x7, partner max 10 µM)",
    "class label": "F"
  },
  {
    "compound": "COc1cccc(OCCCN)c1-c1cc(Nc2cnc(C#N)cn2)n[nH]1 [Prexasertib] + C[C@@H]1COCCN1C2=NC(=NC(=C2)C3(CC3)[S@](=N)(=O)C)C4=C5C=CNC5=NC=C4 [AZD6738] (first compound max 1 µM, 7x7, partner max 10 µM)",
    "class label": "T"
  },
  {
    "compound": "Cc1nc(Nc2ncc(C(=O)Nc3c(C)cccc3Cl)s2)cc(N2CCN(CCO)CC2)n1 [Dasatinib] + CC(=O)Nc1cccc(-n2c(=O)n(C3CC3)c(=O)c3c(Nc4ccc(I)cc4F)n(C)c(=O)c(C)c32)c1 [Trametinib] (first compound max 2 µM, 7x7, partner max 1 µM)",
    "class label": "T"
  },
  {
    "compound": "CC1(C)CCC(CN2CCN(c3ccc(C(=O)NS(=O)(=O)c4ccc(NCC5CCOCC5)c([N+](=O)[O-])c4)c(Oc4cnc5[nH]ccc5c4)c3)CC2)=C(c2ccc(Cl)cc2)C1 [Venetoclax] + Cc1cc2ncnn2cc1Nc1ncc2c(n1)n(C1CCOCC1)c(=O)n2C [AZD7648] (first compound max 1 µM, 7x7, partner max 10 µM)",
    "class label": "T"
  },
  {
    "compound": "CN(CCO)CC[C@H](CSc1ccccc1)Nc1ccc(S(=O)(=O)NC(=O)c2ccc(N3CCC([C@@H](O)c4ccccc4-c4ccc(Cl)cc4)CC3)cc2)cc1S(=O)(=O)C(F)(F)F [AZD4320] + CN(C)CCCOc1ccc(-c2ccc3ncc4c(c3c2)n(C2CCOCC2)c(=O)n4C)cn1 [AZD0156] (first compound max 1 µM, 7x7, partner max 1 µM)",
    "class label": "F"
  },
  {
    "compound": "CC1(C)CCC(CN2CCN(c3ccc(C(=O)NS(=O)(=O)c4ccc(NCC5CCOCC5)c([N+](=O)[O-])c4)c(Oc4cnc5[nH]ccc5c4)c3)CC2)=C(c2ccc(Cl)cc2)C1 [Venetoclax] + CS(=O)(=O)CCNCc1ccc(-c2ccc3ncnc(Nc4ccc(OCc5cccc(F)c5)c(Cl)c4)c3c2)o1 [Lapatinib] (first compound max 1 µM, 7x7, partner max 10 µM)",
    "class label": "F"
  },
  {
    "compound": "N#Cc1cnc(Nc2cc(NC[C@H]3CNCCO3)c(C(F)(F)F)cn2)cn1 [SRA737] + O=c1[nH]cc(F)c(=O)[nH]1 [5-Fluorouracil] (first compound max 10 µM, 7x7, partner max 20 µM)",
    "class label": "T"
  },
  {
    "compound": "O=C(c1cc(Cc2n[nH]c(=O)c3ccccc23)ccc1F)N1CCN(C(=O)C2CC2)CC1 [Olaparib] + CN(CC[C@H](CSC1=CC=CC=C1)NC2=C(C=C(C=C2)S(=O)(=O)NC(=O)C3=CC=C(C=C3)N4CCC(CC4)[C@H](C5=CC=CC=C5C6=CC=C(C=C6)Cl)O)S(=O)(=O)C(F)(F)F)CCO [AZD4320] (first compound max 10 µM, 7x7, partner max 1 µM)",
    "class label": "T"
  },
  {
    "compound": "C=CCn1c(=O)c2cnc(Nc3ccc(N4CCN(C)CC4)cc3)nc2n1-c1cccc(C(C)(C)O)n1 [AZD1775] + C[C@@H]1COCCN1C2=NC(=NC(=C2)C3(CC3)[S@](=N)(=O)C)C4=C5C=CNC5=NC=C4 [AZD6738] (first compound max 1 µM, partner max 10 µM)",
    "class label": "T"
  },
  {
    "compound": "O=C(c1cc(Cc2n[nH]c(=O)c3ccccc23)ccc1F)N1CCN(C(=O)C2CC2)CC1 [Olaparib] + COc1nnc2ccc(N3CCC(c4ccc(OCCN5CCN(C)C(=O)[C@H]5C)cc4)CC3)nn12 [AZD5153] (first compound max 10 µM, 7x7, partner max 1 µM)",
    "class label": "T"
  }
]

---

System: HO-1-u-1 (Oral Cavity Carcinoma)
Experiment: Bliss excess, mean over the matrix (fraction); higher = more synergy

[
  {
    "molecule": "Cc1c2c(nn1C)CSCc1cc(n(C)n1)CSc1cc(c3ccccc3c1)OCCCc1c(C(=O)O)n(C)c3c-2c(Cl)ccc13 [AZD5991] + CCN(CCO)CCCOc1ccc2c(Nc3cc(CC(=O)Nc4cccc(F)c4)[nH]n3)ncnc2c1 [AZD2811] (first compound max 1 µM, 7x7, partner max 1 µM)",
    "Bliss excess": 0.0569
  },
  {
    "molecule": "NC1(C(=O)N[C@@H](CCO)c2ccc(Cl)cc2)CCN(c2ncnc3[nH]ccc23)CC1 [Capivasertib] + COc1nnc2ccc(N3CCC(c4ccc(OCCN5CCN(C)C(=O)[C@H]5C)cc4)CC3)nn12 [AZD5153] (first compound max 10 µM, 7x7, partner max 1 µM)",
    "Bliss excess": 0.0041
  },
  {
    "molecule": "O=C(c1cc(Cc2n[nH]c(=O)c3ccccc23)ccc1F)N1CCN(C(=O)C2CC2)CC1 [Olaparib] + COc1nnc2ccc(N3CCC(c4ccc(OCCN5CCN(C)C(=O)[C@H]5C)cc4)CC3)nn12 [AZD5153] (first compound max 10 µM, 7x7, partner max 1 µM)",
    "Bliss excess": -0.0022
  },
  {
    "molecule": "CN(CCO)CC[C@H](CSc1ccccc1)Nc1ccc(S(=O)(=O)NC(=O)c2ccc(N3CCC([C@@H](O)c4ccccc4-c4ccc(Cl)cc4)CC3)cc2)cc1S(=O)(=O)C(F)(F)F [AZD4320] + Nc1ccn([C@@H]2O[C@H](CO)[C@@H](O)C2(F)F)c(=O)n1 [Gemcitabine] (first compound max 1 µM, 7x7, partner max 0.3 µM)",
    "Bliss excess": 0.0383
  }
]

---

Tested on: HCC-15 (Squamous Cell Lung Carcinoma)
Assay: Bliss excess, mean over the matrix (fraction); higher = more synergy
The following compounds are listed with their measured Bliss excess values.

[
  {
    "compound": "CCN(CCO)CCCOc1ccc2c(Nc3cc(CC(=O)Nc4cccc(F)c4)[nH]n3)ncnc2c1 [AZD2811] + C[C@@H]1COCCN1C2=NC(=NC(=C2)C3(CC3)[S@](=N)(=O)C)C4=C5C=CNC5=NC=C4 [AZD6738] (first compound max 1 µM, 7x7, partner max 10 µM)",
    "Bliss excess": -0.0238
  },
  {
    "compound": "COc1cccc(OCCCN)c1-c1cc(Nc2cnc(C#N)cn2)n[nH]1 [Prexasertib] + O=C(c1cc(Cc2n[nH]c(=O)c3ccccc23)ccc1F)N1CCN(C(=O)C2CC2)CC1 [Olaparib] (first compound max 1 µM, 7x7, partner max 10 µM)",
    "Bliss excess": 0.0101
  },
  {
    "compound": "Cc1c2c(nn1C)CSCc1cc(n(C)n1)CSc1cc(c3ccccc3c1)OCCCc1c(C(=O)O)n(C)c3c-2c(Cl)ccc13 [AZD5991] + Cn1cnc2c(F)c(Nc3ccc(Br)cc3Cl)c(C(=O)NOCCO)cc21 [Selumetinib] (first compound max 1 µM, 7x7, partner max 3 µM)",
    "Bliss excess": 0.0217
  },
  {
    "compound": "CN(CCO)CC[C@H](CSc1ccccc1)Nc1ccc(S(=O)(=O)NC(=O)c2ccc(N3CCC([C@@H](O)c4ccccc4-c4ccc(Cl)cc4)CC3)cc2)cc1S(=O)(=O)C(F)(F)F [AZD4320] + C1CN(CCC1(C(=O)N[C@@H](CCO)C2=CC=C(C=C2)Cl)N)C3=NC=NC4=C3C=CN4 [Capivasertib] (first compound max 1 µM, 7x7, partner max 3 µM)",
    "Bliss excess": -0.0082
  },
  {
    "compound": "CC(=O)c1c(C)c2cnc(Nc3ccc(N4CCNCC4)cn3)nc2n(C2CCCC2)c1=O [Palbociclib] + Cc1c2c(nn1C)CSCc1cc(n(C)n1)CSc1cc(c3ccccc3c1)OCCCc1c(C(=O)O)n(C)c3c-2c(Cl)ccc13 [AZD5991] (first compound max 10 µM, 7x7, partner max 1 µM)",
    "Bliss excess": -0.0501
  },
  {
    "compound": "COc1cccc(OCCCN)c1-c1cc(Nc2cnc(C#N)cn2)n[nH]1 [Prexasertib] + C[C@@H]1COCCN1C2=NC(=NC(=C2)C3(CC3)[S@](=N)(=O)C)C4=C5C=CNC5=NC=C4 [AZD6738] (first compound max 1 µM, 7x7, partner max 10 µM)",
    "Bliss excess": 0.0058
  },
  {
    "compound": "COc1cccc2c1C(=O)c1c(O)c3c(c(O)c1C2=O)C[C@@](O)(C(=O)CO)C[C@@H]3O[C@H]1C[C@H](N)[C@H](O)[C@H](C)O1 [Doxorubicin] + Cc1cc2ncnn2cc1Nc1ncc2c(n1)n(C1CCOCC1)c(=O)n2C [AZD7648] (first compound max 1 µM, 7x7, partner max 10 µM)",
    "Bliss excess": 0.0127
  },
  {
    "compound": "COc1nnc2ccc(N3CCC(c4ccc(OCCN5CCN(C)C(=O)[C@H]5C)cc4)CC3)nn12 [AZD5153] + C[C@@H]1COCCN1C2=NC(=NC(=C2)C3(CC3)[S@](=N)(=O)C)C4=C5C=CNC5=NC=C4 [AZD6738] (first compound max 1 µM, 7x7, partner max 10 µM)",
    "Bliss excess": 0.069
  }
]
